procedureText: self-splicing fitness, log relative to wild type (ln ratio); higher = more splicing; Tetrahymena group I intron in knt gene, E. coli kanamycin selection, DiMSum; sequences stand for … in CUCUCU…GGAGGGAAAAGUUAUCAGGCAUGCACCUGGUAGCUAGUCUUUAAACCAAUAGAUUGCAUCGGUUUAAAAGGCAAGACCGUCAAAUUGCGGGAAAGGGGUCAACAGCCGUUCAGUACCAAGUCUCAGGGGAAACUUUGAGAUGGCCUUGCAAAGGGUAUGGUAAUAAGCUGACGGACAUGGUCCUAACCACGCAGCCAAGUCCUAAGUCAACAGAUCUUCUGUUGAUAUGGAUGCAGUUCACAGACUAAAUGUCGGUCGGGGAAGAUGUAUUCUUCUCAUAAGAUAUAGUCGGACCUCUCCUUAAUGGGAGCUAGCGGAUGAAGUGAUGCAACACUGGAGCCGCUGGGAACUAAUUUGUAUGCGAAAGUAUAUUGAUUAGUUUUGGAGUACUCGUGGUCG;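 further: selection with 25 µg/mL kanamycin versus none on LB agar overnight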
conditionSummary: 30 °C
Categories are defined by ranges of self-splicing fitness (ln), namely bucket A (below -3), bucket B (-3 to below -2), bucket C (-2 or more)

UAACAGCAAUAUUACGGGGA bucket B
GGAUAGCAAUAUUACGGGCA bucket B
GGGCAGCAAUAUUACGAGCU bucket B
CAUCAGCAAUAUUACGCUGU bucket A
UAUCAGCAAUAUUACGUUUA bucket C
UACCAGCAAUAUUACGGGCC bucket B

# input Input UUCCAGCAAUAUUACGAUAG ; output its category
# output bucket B

# input For UAAGAGCAAUAUUACGUCCG then?
# output bucket A

# input Next entry: AGGUAGCAAUAUUACGAAGU
# output bucket A

# input Next up: CCCCAGCAAUAUUACGAUUA
# output bucket A

# input Also check CCCGAGCAAUAUUACGCCAU
# output bucket A

# input For GCCGAGCAAUAUUACGACAG then?
# output bucket C

# input Now consider GAAAAGCAAUAUUACGUAUA .
# output bucket C

----------
Catalogue of sequences with associated self-splicing fitness (ln)
procedureText: self-splicing fitness, log relative to wild type (ln ratio); higher = more splicing; Tetrahymena group I intron in knt gene, E. coli kanamycin selection, DiMSum; sequences stand for … in CUCUCU…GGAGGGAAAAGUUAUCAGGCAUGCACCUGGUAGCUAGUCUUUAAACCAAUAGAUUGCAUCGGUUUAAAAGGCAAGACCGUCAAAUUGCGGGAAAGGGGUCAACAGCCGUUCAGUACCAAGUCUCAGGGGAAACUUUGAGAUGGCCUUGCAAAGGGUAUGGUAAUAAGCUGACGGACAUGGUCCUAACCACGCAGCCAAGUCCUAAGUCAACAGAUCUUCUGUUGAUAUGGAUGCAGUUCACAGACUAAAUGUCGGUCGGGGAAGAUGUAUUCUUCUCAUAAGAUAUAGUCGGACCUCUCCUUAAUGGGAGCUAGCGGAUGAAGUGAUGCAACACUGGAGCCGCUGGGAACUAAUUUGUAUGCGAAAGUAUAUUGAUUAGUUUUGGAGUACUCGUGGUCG
conditionSummary: 37 °C
I'd appreciate a reply containing only the number, no unit.

GGGAAGCAAUAUUACGUAUA -0.738

# input Using the record for AUGAAGCAAUAUUACGAAUG , report its self-splicing fitness (ln).
# output -0.913

# input Proceed to AUACAGCAAUAUUACGGAUA
# output -2.38
